B1: Hairpin Ribozyme (parent)
chain: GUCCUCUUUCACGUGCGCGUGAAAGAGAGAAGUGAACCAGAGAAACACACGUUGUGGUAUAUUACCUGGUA

variants of: B1; assay: self-cleavage, relative activity (ratio to wild type); higher = more cleavage; co-transcriptional
Known self-cleavage of a selection of variants
Response field accepts a number only; no unit should be typed.

Use these answered entries as a reference point.
G13A A49G    0.5
C37A A39C    0.128
C37U A39C    0.0611

Which self-cleavage value is on record for G1C U52A ? 0.0569

Can you check U14G A28G next? 1.15

Can you check U2A A35C next? 0.374

Can you check A28C A43U next? 0.148

Can you check G21A A61U next? 0.18

Can you check G32C A64G next? 0.0936
